Each recorded value in this set is attributed to paper PMC8185074.

Molecular target: HDAC2 (Homo sapiens)
Construct: purchased Reaction Biology Corporation (assay run by the CRO)
Sequence (Q92769 whole entry): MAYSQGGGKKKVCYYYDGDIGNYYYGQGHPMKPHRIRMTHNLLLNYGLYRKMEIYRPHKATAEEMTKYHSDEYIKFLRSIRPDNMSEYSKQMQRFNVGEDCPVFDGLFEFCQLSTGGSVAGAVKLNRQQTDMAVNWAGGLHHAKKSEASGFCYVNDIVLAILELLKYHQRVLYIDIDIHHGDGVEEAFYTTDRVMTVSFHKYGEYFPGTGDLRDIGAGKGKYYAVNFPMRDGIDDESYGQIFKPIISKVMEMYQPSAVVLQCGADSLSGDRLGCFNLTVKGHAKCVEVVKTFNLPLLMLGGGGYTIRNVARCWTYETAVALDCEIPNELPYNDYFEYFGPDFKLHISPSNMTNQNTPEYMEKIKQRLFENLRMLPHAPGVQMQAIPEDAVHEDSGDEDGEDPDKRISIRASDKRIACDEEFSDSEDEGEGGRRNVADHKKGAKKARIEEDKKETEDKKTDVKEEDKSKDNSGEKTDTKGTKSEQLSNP
Assay: Initial HDAC2 IC50 estimate (BPS Biosciences HDAC fluorogenic assay kit)
Assay type: biochemical
Details: Supplementary Dataset 2; read-out: HDAC2 activity (initial activity)
Method: Initial IC50 values were estimated using HDAC fluorogenic assay kits from BPS Biosciences (HDAC2, HDAC4, and HDAC6) following the protocol described in the kit. All the measures were performed in duplicates or triplicates. These measurements were done either on full range of concentrations (1:10 dilution from 1 µM to 100 pM) or on two concentrations only (20 nM and 200 nM) as an estimate of the range. […] Source Data are provided as a Source Data file.
pIC50: −log10 of the molar value. Peptide text beside a SMILES is read from it.
MEASURE_NAME: pIC50

Form: molecule = N=C(N)NCCC[C@@H]1NC(=O)[C@@H](CCCNC(=N)N)NC(=O)[C@H]2CCCN2C(=O)[C@@H](Cc2c[nH]cn2)NC(=O)[C@H](Cc2ccc(O)cc2)NC(=O)[C@H](CCCCCS)NC(=O)[C@H](CCc2ccccc2)NC(=O)[C@@H](CCCCN)NC(=O)[C@H](CC(=O)O)NC1=O [des3.2.0, SHA-Tyr-dHis-dPro-dArg-Arg-Asp-dLys-C27] (HELM PEPTIDE1{D.[dK].[O=C([C@H](CCc1ccccc1)N[*:1])[*:2]].[O=C([C@H](CCCCCS)N[*:1])[*:2]].Y.[dH].[dP].[dR].R}$PEPTIDE1,PEPTIDE1,1:R1-9:R2$$$V2.0) ; pIC50 = < 8.00

Form: molecule = NCCCC[C@@H]1NC(=O)[C@@H]2CCCN2C(=O)[C@H](CC(N)=O)NC(=O)[C@H](CCCCCS)NC(=O)CNC(=O)[C@H](Cc2c[nH]c3ccccc23)NC(=O)[C@@H](CCCCN)NC(=O)[C@H](CCC(N)=O)NC1=O [des1.1.0, SHA-Asn-Pro-Lys-Gln-dLys-Trp-Gly] (HELM PEPTIDE1{G.[O=C([C@H](CCCCCS)N[*:1])[*:2]].N.P.K.Q.[dK].W}$PEPTIDE1,PEPTIDE1,1:R1-8:R2$$$V2.0) ; pIC50 = 7.00 to 8.00

Form: molecule = N=C(N)NCCC[C@@H]1NC(=O)[C@@H](CCCNC(=N)N)NC(=O)[C@H]2CCCN2C(=O)[C@@H](Cc2c[nH]cn2)NC(=O)[C@H](Cc2ccc(O)cc2)NC(=O)[C@H](CCCCCS)NC(=O)[C@H](CCc2ccccc2)NC(=O)[C@@H](CCC(N)=O)NC(=O)[C@H](CC(=O)O)NC1=O [des3.3.0, SHA-Tyr-dHis-dPro-dArg- Arg-Asp-dGln-C27] (HELM PEPTIDE1{D.[dQ].[O=C([C@H](CCc1ccccc1)N[*:1])[*:2]].[O=C([C@H](CCCCCS)N[*:1])[*:2]].Y.[dH].[dP].[dR].R}$PEPTIDE1,PEPTIDE1,1:R1-9:R2$$$V2.0) ; pIC50 = 7.00 to 8.00
